All values here come from patent US20230092163A1.

# assayTarget: STING (Homo sapiens, UniProt Q86WV6, G230A/H232R/R293Q/R71H)
# Sequence (Q86WV6 whole entry R71H/G230A/H232R/R293Q): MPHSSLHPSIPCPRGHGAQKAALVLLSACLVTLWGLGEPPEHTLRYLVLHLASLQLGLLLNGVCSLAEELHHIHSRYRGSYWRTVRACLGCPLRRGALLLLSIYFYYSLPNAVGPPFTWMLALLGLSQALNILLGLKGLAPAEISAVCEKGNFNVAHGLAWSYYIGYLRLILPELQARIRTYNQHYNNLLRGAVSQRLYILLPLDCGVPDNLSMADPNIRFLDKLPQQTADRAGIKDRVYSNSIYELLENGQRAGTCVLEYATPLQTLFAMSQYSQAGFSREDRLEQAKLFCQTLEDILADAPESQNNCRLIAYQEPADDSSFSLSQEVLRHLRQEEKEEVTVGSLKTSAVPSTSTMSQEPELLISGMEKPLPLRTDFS
# experimentDescription: STING reporter assay: THP1-Dual KO-IFNAR2 cells stimulated with 2′3′cGAMP, luciferase reporter activity
# Format: cell-based
# recordedConditions: 15 μM 2′3′cGAMP, 24h, class symbols
Below is a list of entries, each paired with its recorded EC50 value.

c1ccc(-c2ccc(Nc3ccc4cc[nH]c4c3)nc2)cc1 = 1000 to 5000 nM
O=C(Nc1cc(F)cc(C(F)(F)F)c1)Nc1cc(Cl)c2cc[nH]c2c1 = 200 to 1000 nM
Cc1cc(NC(=O)Nc2ccc3cc[nH]c3c2)ccc1C#N = 200 to 1000 nM
CC(C)(C)OC(=O)N1Cc2cnc(Nc3ccc4cc[nH]c4c3)nc2C1 = 5000 to 100000 nM

Now, please, on to the next molecule.
QUERY: Enter reported EC50 observed with STING (Homo sapiens, UniProt Q86WV6, G230A/H232R/R293Q/R71H) for Clc1ccc(Nc2ccc3cc[nH]c3c2)nc1Nc1ccc2cc[nH]c2c1
RESULT: 5000 to 100000 nM

###

# assayTarget: STING (Homo sapiens, UniProt Q86WV6, G230A/H232R/R293Q/R71H)
# experimentDescription: STING reporter assay: THP1-Dual KO-IFNAR2 cells stimulated with 2′3′cGAMP, luciferase reporter activity
# Format: cell-based
# recordedConditions: 15 μM 2′3′cGAMP, 24h, numeric bounds
Below is a list of entries, each paired with its recorded EC50 value.

c1cc(Nc2ccc3cc[nH]c3c2)nc(C2CC2)c1 [Compound 433] = > 30 µM
O=C(Nc1ccc2[nH]ccc2c1)NC1Cc2ccccc2C1 [Compound 357] = > 30 µM
CC(C)(C)OC(=O)N1CC(CCNC(=O)Nc2ccc3[nH]ccc3c2)C1 [Compound 316] = > 30 µM

QUERY: Requested field: EC50. Item: O=C(Nc1ccc2cc[nH]c2c1)Nc1ccno1 [Compound 191]
RESULT: > 30 µM

QUERY: Requested field: EC50. Item: CC(C)c1ccnc(Nc2ccc3cc[nH]c3c2)c1 [Compound 393]
RESULT: > 30 µM

QUERY: Requested field: EC50. Item: O=C(Nc1ccc(C(F)(F)F)cc1)Nc1cc(CO)c2cc[nH]c2c1 [Compound 157]
RESULT: > 30 µM

QUERY: Requested field: EC50. Item: Cn1cc(-c2c[nH]c3cc(NC(=O)Nc4ccc(C(F)(F)F)cc4)ccc23)cn1 [Compound 545]
RESULT: > 30 µM

QUERY: Requested field: EC50. Item: O=C(NCCc1ccc(OC(F)(F)F)cc1)Nc1ccc2[nH]ccc2c1 [Compound 321]
RESULT: > 30 µM

###

# assayTarget: STING (Homo sapiens, UniProt Q86WV6, G230A/H232R/R293Q/R71H)
# experimentDescription: STING reporter assay: THP1-Dual KO-IFNAR2 cells stimulated with 2′3′cGAMP, luciferase reporter activity
# Type: cell-based
# recordedConditions: 15 μM 2′3′cGAMP, 24h, class symbols
assayReadout: EC50

CNC(=O)c1cc(NC(=O)Nc2ccc(C(F)(F)F)cc2)cc2[nH]ccc12 [Compound 543] = 5 to 100 µM
O=C(Nc1ccc(C(F)(F)F)cc1)Nc1cc(Cl)c2cc[nH]c2c1 [Compound 251] = 0.04 to 0.2 µM
CC(C)(C)c1ccc(Nc2ccc3cc[nH]c3c2)nc1 [Compound 426] = 5 to 100 µM
Cc1ccccc1CCNC(=O)Nc1ccc2cc[nH]c2c1 [Compound 212] = 1 to 5 µM
COC(=O)c1cc(NC(=O)Nc2ccc(C(F)(F)F)cc2)cc2[nH]ccc12 [Compound 165] = 0.2 to 1 µM

QUERY: Requested field: EC50. Item: O=C(Nc1ccc(C(F)(F)F)cc1)Nc1cc(Cl)c2c(F)c[nH]c2c1 [Compound 518]
RESULT: 0.04 to 0.2 µM

QUERY: Requested field: EC50. Item: O=C(Nc1ccc2cc[nH]c2c1)N[C@@H]1C[C@H]1c1ccccc1 [Compound 214]
RESULT: 1 to 5 µM

QUERY: Requested field: EC50. Item: O=C(Nc1cccc(S(F)(F)(F)(F)F)c1)Nc1ccc2cc[nH]c2c1 [Compound 233]
RESULT: 0.2 to 1 µM

QUERY: Requested field: EC50. Item: O=C(Nc1cccc(OC(F)F)c1)Nc1ccc2cc[nH]c2c1 [Compound 228]
RESULT: 1 to 5 µM

QUERY: Requested field: EC50. Item: FC(F)(F)c1cccc2nc(Nc3ccc4cc[nH]c4c3)ccc12 [Compound 574]
RESULT: 0.2 to 1 µM

QUERY: Requested field: EC50. Item: CN(C)CCc1cc(NC(=O)Nc2ccc(C(F)(F)F)cc2)cc2[nH]ccc12 [Compound 513]
RESULT: 5 to 100 µM

QUERY: Requested field: EC50. Item: CCCCCCCCCCCCCCNC(=O)Nc1ccc2cc[nH]c2c1 [Compound 236]
RESULT: 0.2 to 1 µM

QUERY: Requested field: EC50. Item: O=C(Nc1ccc(C(F)(F)F)cc1)Nc1ccc2c(F)c[nH]c2c1 [Compound 242]
RESULT: 0.2 to 1 µM

QUERY: Requested field: EC50. Item: CN(c1ccc2cc[nH]c2c1)c1ccc2ccc(C(F)(F)F)cc2n1 [Compound 605]
RESULT: 5 to 100 µM

QUERY: Requested field: EC50. Item: O=C(Nc1cccc(S(=O)(=O)C(F)(F)F)c1)Nc1ccc2[nH]ccc2c1 [Compound 315]
RESULT: 5 to 100 µM

QUERY: Requested field: EC50. Item: CC(C)c1cccc(Nc2ccc3cc[nH]c3c2)n1 [Compound 406]
RESULT: 5 to 100 µM

QUERY: Requested field: EC50. Item: O=C(Nc1cc(Cl)c2cc[nH]c2c1)NC1CCC2(CCCCC2)CC1 [Compound 542]
RESULT: 0.2 to 1 µM

QUERY: Requested field: EC50. Item: N#Cc1cc(Nc2ccc3ccc(C(F)(F)F)cc3n2)cc2[nH]ccc12 [Compound 384]
RESULT: 1 to 5 µM
